test system: MDA-MB-231 breast; test: NCI tumour cell line growth inhibition, 48 h
This section presents compounds with their documented TGI values.
Please give a number only; it is taken to be in µM.

Consider the worked cases shown below.
[
  {
    "Smiles string": "Clc1ccc2c(c1)N(c1ncnc3ccc(-c4cnc5[nH]ccc5c4)cc13)CC2",
    "TGI (µM)": 19.3
  },
  {
    "Smiles string": "CCOc1ccc(N/C(Cl)=C(Cl)\\C(=C(\\Nc2ccc(OCC)cc2)n2nnc3ccccc32)[N+](=O)[O-])cc1",
    "TGI (µM)": 15.6
  },
  {
    "Smiles string": "CC(=O)Oc1ccccc1/C=C/C(=O)/C=C/c1ccccc1OC(C)=O",
    "TGI (µM)": 6.08
  },
  {
    "Smiles string": "NC(=S)N/N=C1\\NC(=O)/C(=C/c2ccc3c(c2)OCO3)S1",
    "TGI (µM)": 77.1
  },
  {
    "Smiles string": "COC(=O)c1c(O)ccc2c1c1c(n2Cc2ccc(Cl)cc2Cl)C(=O)c2ccccc2C1=O",
    "TGI (µM)": 23.5
  }
]

Query :: Which TGI value is on record for `c1ccc(CNCCCCNCCCNCc2ccccc2)cc1` ?
Result :: 33.2

Query :: Fill in: TGI of `CC(=O)O[C@H]1/C(=C/c2ccncc2)C[C@H]2[C@@H]3CC=C4C[C@@H](N5CCCC5)CC[C@]4(C)[C@H]3CC[C@]12C` is ___
Result :: 35

Query :: Give its TGI value. Item: `O=C1c2nsnc2C(=O)c2c(F)c(F)c(F)c(F)c21`
Result :: 2.78

Query :: Fill blank: measured TGI of the compound `COC(=O)[C@]12CC[C@@H](C)[C@H](C)[C@@H]1C1=CC[C@@H]3[C@@]4(C)C(C=O)=C[C@@](C)(COC(C)=O)C4=CC[C@@]3(C)[C@]1(C)CC2` is ____.
Result :: 23.5

====

List of TGI values.
test system: ACHN renal; assay: NCI tumour cell line growth inhibition, 48 h

[
  {
    "Compound": "O=C1C(=O)c2c(nc3ccc(Br)cn23)-c2ccccc21",
    "Assay result": "1.55 µM"
  },
  {
    "Compound": "CC(=O)NC1=C(NCCN(C)C)C(=O)c2ccccc2C1=O",
    "Assay result": "> 50 µM"
  },
  {
    "Compound": "Nc1cc(N2CCCC2)nc(=O)n1-c1ccccc1",
    "Assay result": "> 100 µM"
  },
  {
    "Compound": "Nc1ccn(C2CCC(CO)O2)c(=S)n1 (stereo unspecified)",
    "Assay result": "> 100 µM"
  }
]

Query :: // query TGI value for entry CN(C)CCN=C1Nc2ccccc2C(=S)N2CSCC12 (stereo unspecified)
Result :: > 100 µM

Query :: Fill in the blank: the reported TGI of `C[C@]12CC[C@H](O)C[C@H]1CC[C@@H]1[C@@H]2CC[C@]2(C)[C@@H](C3=CC(=O)OC3)[C@@H](O)C[C@]12O` is ____.
Result :: 1.82 µM

====

test system: ACHN renal; test: NCI tumour cell line growth inhibition, 48 h
Overview of reported TGI across a group of molecules:

Worked cases, answers included:
[
  {
    "Molecule": "NS(=O)(=O)c1ccc(NC2=CC(=O)C(=O)c3ccccc32)cc1",
    "Assay target": "ACHN renal",
    "TGI": "> 100 µM"
  },
  {
    "Molecule": "CCOC(=O)[C@@]12C[C@](/C=C/OC)(O[Si](C)(C)C)[C@@]13c1cc(OC)c(OC)cc1CCN3C(=O)C2O (stereo partly specified)",
    "Assay target": "ACHN renal",
    "TGI": "> 100 µM"
  },
  {
    "Molecule": "O=[N+]([O-])c1ccccc1N/N=C\\c1c[nH]c2ccccc12",
    "Assay target": "ACHN renal",
    "TGI": "> 67.3 µM"
  },
  {
    "Molecule": "CC1Oc2c(c(=O)oc3ccccc23)[C@@]1(C)CC1C[C@H](C)C(=O)O1 (stereo partly specified)",
    "Assay target": "ACHN renal",
    "TGI": "65.8 µM"
  },
  {
    "Molecule": "Cc1nnc2sc(NN)nn12",
    "Assay target": "ACHN renal",
    "TGI": "> 100 µM"
  }
]

Query :: Returns the measured TGI for the input molecule. Input: `c1ccc(-n2nc3ccc4nonc4c3n2)cc1`
Result :: > 100 µM

Query :: Recorded TGI of `c1ccc(CNCCCCNCCCNCc2ccccc2)cc1` , please.
Result :: 29.3 µM

Query :: Give its TGI value. Item: CC(NC(=O)c1ccccc1)NC(=O)C(C)C(=O)Nc1ccccc1 (stereo unspecified)
Result :: > 100 µM

Query :: Look up TGI for this molecule: `CC(=O)Nc1cc(N(CCOS(C)(=O)=O)CCOS(C)(=O)=O)ccc1N=O`
Result :: > 100 µM

Query :: I am curious: what TGI value has been reported for `c1cc2[nH]ncc2cc1-c1nc2ccc3[nH]ncc3c2c2c1CCCC2` ?
Result :: 10.7 µM

Query :: Which TGI is listed for `COc1cccc(/C=N/[N-]C(N)=O)c1[O-].[Ni+2].[OH3+].c1ccc(-c2ccccn2)nc1` ?
Result :: > 100 µM

====

Listed next: entries and their corresponding TGI.
system: LXFL 529 NSCLC; assay: NCI tumour cell line growth inhibition, 48 h

Illustrative cases are given below, each with its answer.
[
  {
    "Compound": "N#Cc1c2c(c(N=P(c3ccccc3)(c3ccccc3)c3ccccc3)n3c1nc1ccccc13)CCCC2",
    "Assay target": "LXFL 529 NSCLC",
    "Measured attribute": "TGI",
    "Assay result": "> 100 µM"
  },
  {
    "Compound": "CC(=O)Nc1cc(N(CCOS(C)(=O)=O)CCOS(C)(=O)=O)ccc1N=O",
    "Assay target": "LXFL 529 NSCLC",
    "Measured attribute": "TGI",
    "Assay result": "> 100 µM"
  },
  {
    "Compound": "COC(=O)C(CC(C)C)NC(=O)NC12CC3CC(CC(F)(C3)C1)C2 (stereo not given)",
    "Assay target": "LXFL 529 NSCLC",
    "Measured attribute": "TGI",
    "Assay result": "> 100 µM"
  },
  {
    "Compound": "Cc1ccc(NC(=O)C(=O)C(C#N)c2nc(-c3ccc(-c4ccccc4)cc3)cs2)c(C)c1 (stereo not given)",
    "Assay target": "LXFL 529 NSCLC",
    "Measured attribute": "TGI",
    "Assay result": "> 100 µM"
  }
]

Continue with the compound presented below.
Query :: Which measured TGI belongs to `COC1=CCC=C(C[C@@H]2NCCc3cc(OC)c(OC)cc32)C1` , tested on LXFL 529 NSCLC?
Result :: > 100 µM

====

Recorded measurements of TGI, one per entry
system: SNB-75 CNS; experiment: NCI tumour cell line growth inhibition, 48 h
Field format: number, assumed µM, no unit text.

[
  {
    "Compound": "NC(=S)N/N=C1\\NC(=O)/C(=C/c2ccc3c(c2)OCO3)S1",
    "Assay result": 52.6
  },
  {
    "Compound": "CC(=O)OC/C=C\\Cn1nc(Br)c(=O)[nH]c1=O",
    "Assay result": 29.6
  },
  {
    "Compound": "CCCCCCCCCCCCCCCCOCC(Cl)COP(=O)(O)OP(=O)(O)OCC1OC(n2cc(C)c(=O)[nH]c2=O)CC1O (stereo unspecified)",
    "Assay result": 71.8
  }
]

Query :: Which measured TGI value corresponds to `O=C(N/N=C/c1cc(Cl)cc(Cl)c1[O-])c1ccccc1O.O=C(N/N=C/c1cc(Cl)cc(Cl)c1[O-])c1ccccc1O.[Zn+2]` ?
Result :: 16.4

====

tested on: HCT-15 colon; experiment: NCI tumour cell line growth inhibition, 48 h
Measured TGI, listed per entry.

[
  {
    "Compound": "CN(N)c1cc(=O)[nH]c(=O)[nH]1",
    "Assay target": "HCT-15 colon",
    "TGI": "> 100 µM"
  },
  {
    "Compound": "COc1cc2nc(SCC(=O)Nc3cc(OC)c(OC)c(OC)c3)n(Cc3ccccc3)c(=O)c2cc1OC",
    "Assay target": "HCT-15 colon",
    "TGI": "> 100 µM"
  },
  {
    "Compound": "NCCN1C(=O)CN=C(c2ccc(Cl)cc2)c2cc(Cl)ccc21",
    "Assay target": "HCT-15 colon",
    "TGI": "34.7 µM"
  },
  {
    "Compound": "OC1CCOc2ccccc21 (configuration not stated)",
    "Assay target": "HCT-15 colon",
    "TGI": "> 100 µM"
  },
  {
    "Compound": "CCCCC(Sc1cc(Cl)c(C)cc1S(=O)(=O)Nc1n[nH]c(N)n1)C(=O)OC (configuration not stated)",
    "Assay target": "HCT-15 colon",
    "TGI": "> 10 µM"
  },
  {
    "Compound": "CC(C)=NNC=N/C(C#N)=C(\\N)C#N",
    "Assay target": "HCT-15 colon",
    "TGI": "> 100 µM"
  },
  {
    "Compound": "COC(=O)/C=C1/CCC(C)(C(=O)NS(=O)(=O)c2ccc(C)cc2)C1(C)C (configuration not stated)",
    "Assay target": "HCT-15 colon",
    "TGI": "> 100 µM"
  },
  {
    "Compound": "CO/N=C(\\C(=O)N(C)n1cnnc1)c1csc(NC(c2ccccc2)(c2ccccc2)c2ccccc2)n1",
    "Assay target": "HCT-15 colon",
    "TGI": "> 10 µM"
  }
]

Query :: So what does the record say about TGI for `COc1cc(-c2nc3ccccc3s2)ccc1NC(=O)COc1ccc(Cl)cc1` ?
Result :: > 100 µM

Query :: # TGI lookup, item `CC(=O)Nc1ccc(-c2nc3ccccc3s2)cc1I`
Result :: > 100 µM

Query :: Look up TGI for this compound: `COC1=CCC=C(C[C@@H]2NCCc3cc(OC)c(OC)cc32)C1`
Result :: > 100 µM

Query :: What value of measured TGI is listed for CC(=O)c1ccc(OCC(O)CO)cc1 (configuration not stated) ?
Result :: > 100 µM

Query :: Quick one: TGI for `CNC(=O)N(CCC#N)CCCN(C(=O)NC)c1ccccc1` ?
Result :: > 100 µM

Query :: Recorded TGI of `Cc1oc2c(Cl)cc(O)c(Cl)c2c2cccc1-2` , please.
Result :: 75.4 µM
